Where these numbers come from: ChEMBL document CHEMBL1201862

# Tested on: EKVX
# Assay method text: NCI tumour cell line growth inhibition, 48 h
The source made the active and inactive calls. No stated cut-off is given here; in the data, active = GI50 up to about 1.1 µM and inactive = higher.
Exercise: for every item that follows, state its recorded GI50.

Consider the worked cases shown below.
- NCC#CCNCCCN1CC1: > 100 µM (inactive)
- CCCN1C(=O)CNC(=O)c2[nH]cnc21: > 100 µM (inactive)
- O=c1[nH]c(=S)c2cc3c(=S)[nH]c(=O)n(CCC(c4ccccc4)(c4ccccc4)c4ccccc4)c3nc2n1CCC(c1ccccc1)(c1ccccc1)c1ccccc1: > 100 µM (inactive)
- CC1=CC(=O)C[C@]2(C)[C@@H](O)CC(C(C)CO)C[C@@H]12 (stereo not given in full): > 100 µM (inactive)
- O=C(NCCSSCCNC(=O)/C(Cc1ccc(O)c(Br)c1)=N/O)/C(Cc1ccc(O)c(Br)c1)=N/O: 4.49 µM (inactive)
- Nc1c(C(=O)NC23CC4CC(CC(C4)C2)C3)[n+]([O-])c2ccccc2[n+]1[O-]: > 100 µM (inactive)
- COc1ccc2nc3ccccc3c(NCCN(CCCl)CCCl)c2c1: 2.35 µM (inactive)
- Cc1ccccc1-n1c(C)nc(-c2ccccc2)cc1=O: > 100 µM (inactive)
- Cn1c(=O)c2nc(/N=N/Nc3nncs3)[nH]c2n(C)c1=O: > 100 µM (inactive)
- Cc1cc2c(cc1-c1cc3c(cc1C)C(C(C)C)=C(O)C(=O)/C3=C\Nc1cccc3c(N)cccc13)/C(=C/Nc1cccc3c(N)cccc13)C(=O)C(O)=C2C(C)C: > 100 µM (inactive)

Batch: GI50 for all items listed.
1. Cc1c(NC(=O)CSC(=S)N2CCN(Cc3ccccc3)CC2)c(=O)n(-c2ccccc2)n1C
2. CCc1nc(N)nc(N)c1-c1ccc(Cl)cc1

Reply:
1: > 100 µM (inactive); 2: 7.55 µM (inactive)

Batch: GI50 for all items listed.
1. O=S(=O)(N/C(=N\O)Nc1ccc(Cl)cc1)c1ccccc1
2. Cc1nn2c(=O)c([N+](=O)[O-])c(/C=C/c3ccco3)nc2s1
3. O=c1[nH]c2cc3[nH]c4ncccc4c(=O)c3cc2[nH]1
4. Cc1c(O)c(OC2OC(CO)C(O)C(O)C2O)cc2c1C=C[C@@H]1[C@@]2(C)C(=O)C[C@]2(C)[C@@H]([C@@](C)(O)C(=O)CCC(C)(C)O)[C@H](O)C[C@@]12C (stereo not given in full)
5. O=[N+]([O-])c1ccc2c(c1)C(N1CCN(CCO)CC1)Cc1ccc(F)cc1S2 (stereo not given)
6. Cc1cc(S(N)(=O)=O)c(S/C(=N\Nc2ccc([N+](=O)[O-])cc2)c2ccc(Cl)cc2)cc1Cl

Reply:
["10.3 µM (inactive)", "26.4 µM (inactive)", "> 10 µM (inactive)", "28.6 µM (inactive)", "11.2 µM (inactive)", "6.19 µM (inactive)"]

Hi there! I need GI50 for each item below, if you can.
1. CC(=O)/C=C\C1CC2C=CC1C2 (stereo not given)
2. Cc1ccccc1C(=O)Oc1ccc(Oc2ccccc2)cc1

Reply:
1. 64.9 µM (inactive)
2. 73.5 µM (inactive)

----------
# Tested on: A498
# Assay method text: NCI tumour cell line growth inhibition, 48 h
Activity calls are given as the source filed them. Cut-off read from the data, not from the text of the source: active = GI50 up to about 1.1 µM and inactive = higher.
Observable: GI50

* Nc1ncn(C2OC(COP(=O)(O)O)C(O)C2O)c(=O)n1 (configuration not stated) | > 100 µM (inactive)
* COc1cc(-c2nnc3n2NC=C(C(=O)O)S3)cc(OC)c1OC | > 100 µM (inactive)
* CC(C(=O)O)C1Nc2ccccc2NC1=O (configuration not stated) | > 100 µM (inactive)
* NN=C1/C(=C\c2ccccc2)CCC/C1=C/c1ccccc1 | 29.6 µM (inactive)
* O=C1C(NCCN2CCOCC2)=C(Cl)C(=O)c2ncccc21 | 2.03 µM (inactive)
* O=[N+]([O-])/C(C(Cl)=C(Cl)Cl)=C(\N1CCOCC1)n1nnc2ccccc21 | 16.9 µM (inactive)
* COc1ccc(OC)c(CCc2ccccc2CC(=O)O)c1 | > 100 µM (inactive)
* O=C(Nc1cccc(C(F)(F)F)c1)O/N=C(/Cl)CCl | > 100 µM (inactive)
* COc1c(NC(C)=O)cc(C)cc1NC(C)=O | > 100 µM (inactive)
* Nc1nn2c(=O)c3ccccc3nc2s1 | > 100 µM (inactive)

Field: GI50. Fill in for each record below.
1. OCCCc1cc(O)c2c(c1)C(CO)C(c1ccc(O)c(O)c1)O2 (configuration not stated)
2. Cc1cc(S(N)(=O)=O)c(S/C(=N\Nc2ccc([N+](=O)[O-])cc2)c2ccc(Cl)cc2)cc1Cl
3. N#Cc1nc(Sc2cnsn2)c(Sc2cnsn2)nc1C#N
4. CCOC(=O)C(C(=O)OCC)=C1NC2(c3ccccc3Nc3ccc(C)cc32)C(C#N)S1 (configuration not stated)
5. CN(C)c1ccc(/C=C(\NC(=O)c2ccccc2)C(=O)NC(CC(=O)O)C(=O)O)cc1 (configuration not stated)
6. C[C@H]1C(=O)O[C@@H]2CCN3CC=C(COC(=O)[C@](C)(O)[C@@]1(C)O)[C@H]23
7. CC(C)CCCC(C)[C@H]1CC[C@H]2n3c(nnc3-c3ccccc3)CCC[C@]12C (some centres not stated)
8. O=C(O)Cc1cc(=O)oc2cc(O)c(Cl)cc12

Reply:
["> 100 µM (inactive)", "4.32 µM (inactive)", "21.8 µM (inactive)", "10.3 µM (inactive)", "> 100 µM (inactive)", "> 100 µM (inactive)", "14 µM (inactive)", "> 100 µM (inactive)"]

Record GI50 for all entries; do not skip any.
1. OCCCc1ccc2c(c1)[C@H](CO)[C@@H](c1ccc(O)cc1)O2
2. CCOC(=O)c1ccc(NCc2ccc3oc(=O)c(-c4ccccc4)nc3c2)cc1
3. N/C(S)=N/N=C/c1ccc(N)cn1
4. COC(=O)C1=COC2OC3CC1C2C(C)O3 (configuration not stated)
5. COc1cc(CN2CCCCC2)cc2cc(C(=O)O)c(=O)oc12
6. O=C(Nc1ccc(Nc2ccc3c(c2)C(=O)c2ccccc2C3=O)c2c1C(=O)c1ccccc1C2=O)c1ccccc1
7. Cc1ccc(C2(O)CS/C(=N\C34CC5CC(CC(C5)C3)C4)N2C(P(=O)(O)O)P(=O)(O)O)cc1 (configuration not stated)
8. C=CCOC1(CC=C)C(=O)OC2C(O)COC21O (configuration not stated)

Reply:
1. > 100 µM (inactive)
2. 61.1 µM (inactive)
3. > 8.15 µM (inactive)
4. > 100 µM (inactive)
5. > 100 µM (inactive)
6. > 87.7 µM (inactive)
7. 82.8 µM (inactive)
8. > 100 µM (inactive)

Give GI50 for each of the items listed below.
1. O=C1CSC2(CC(/C=C/c3cccc([N+](=O)[O-])c3)=NN2c2cccc(S(=O)(=O)O)c2)N1c1nc2ccccc2s1 (configuration not stated)
2. O=S1(=O)C(c2ccccc2)C(N2CCCCC2)C1C1CC2c3ccccc3C1c1ccccc12 (configuration not stated)
3. CC(C)(C)OC(=O)N/N=C(/N)Cc1ccccc1
4. Cc1nc(C(N)=O)c(N)n1CCN1CCN(C(=O)CCCCCCCCCCNC2NC=Nc3[nH]cnc32)CC1 (configuration not stated)
5. O=C1CNc2cc(N3CCN(c4ccccc4)CC3)ccc2N1
6. C=CCNC(=O)/C=C\C(=O)O

Reply:
20.4 µM (inactive)
> 100 µM (inactive)
> 100 µM (inactive)
> 100 µM (inactive)
> 100 µM (inactive)
> 100 µM (inactive)
